Measured melting point values are reported for all entries that follow.

1. CCNC(=S)C1=CC(CF)(CF)Oc2ccc(C(F)(F)F)cc21 | 65 to 67 °C

[Q] Fill blank: measured melting point of the compound `CCOC(=O)C(=CNc1cc(C)nc(-c2ccncc2)n1)C(=O)OCC` is ____.
[A] 169 to 171 °C

[Q] Fill blank: measured melting point of the compound COc1ccccc1C(=O)NCc1cccc2c1CN(C1CCC(=O)NC1=O)C2=O (stereo unspecified) is ____.
[A] 236 to 238 °C

[Q] Fill blank: measured melting point of the compound `OCc1csc(=S)n1-c1ccc(F)c(F)c1F` is ____.
[A] 113 to 116 °C

[Q] Fill blank: measured melting point of the compound COc1ccc2c(c1)C(OC(C)C)=C(C(N)=O)S2=O (stereo unspecified) is ____.
[A] 168 to 170 °C

[Q] Fill blank: measured melting point of the compound `CNC1=Nc2ccc(C3=NNC(=O)CC3)cc2C1(C)C` is ____.
[A] 320 to 324 °C

###

Measured melting point values are reported for all entries that follow.

1. CC(=O)N(C)c1cccc(C2=CCNc3c(C#N)cnn32)c1 | 114 to 120 °C
2. OCc1cn(-c2cccc(Cl)c2)cn1 | 78 to 79 °C
3. Clc1ccc(C(C2=NCCN2)c2nccs2)cc1 (stereo unspecified) | 145 to 147 °C

[Q] Fill blank: measured melting point of the compound CC(CF)(CF)C(=O)C(Oc1ccc(Cl)cc1)n1cnnc1 (stereo unspecified) is ____.
[A] 119 to 122 °C

[Q] Fill blank: measured melting point of the compound `CN(C)c1ccc(/C=C/c2ccccc2F)cc1` is ____.
[A] 124 to 126 °C

[Q] Fill blank: measured melting point of the compound C=CCN(c1ccccc1C=C(SC)S(C)=O)c1c(Cl)cccc1Cl (stereo unspecified) is ____.
[A] 104 to 107 °C

###

Measured melting point values are reported for all entries that follow.

1) O=C(Nc1cccc([N+](=O)[O-])c1)C(Br)CCBr (racemic) | 75 to 76 °C
2) CCOC(=O)c1ccc(NC(=O)C2Cc3cc(SC)ccc3C(=O)CS2)cc1 (stereo not given) | 236 to 237 °C
3) CCCN(CCC)CC1CCn2c(nc3ccccc32)S1 (stereo not given) | 82 to 84 °C
4) Cc1nc2c(N)nc3ccccc3c2n1CCCNS(C)(=O)=O | 236 to 238 °C
5) Cc1cccc(Oc2c[nH]c(=O)[nH]c2=O)c1 | 291 to 295 °C

Alright, here's another compound for you.
[Q] Fill blank: measured melting point of the compound CCOC(=O)C1=C(C)NC(N=C(C)N(C)C)=C(C(=O)OCC)C1c1ccccc1Cl (stereo not given) is ____.
[A] 181 °C

###

Readout label: melting point

As a guide, the following entries are already answered.
1) Cc1cc([N+](=O)[O-])c2[nH]ccc(=O)c2c1 | 209 to 212 °C
2) CNC(=O)C1C(C)(C)C1(C)C | 98 °C
3) CS(=O)(=O)N1C(=O)[C@H](C2CC2)[C@H]2[C@@H]1CCN2C(=O)OCc1ccccc1 (relative stereo) | 144 to 150 °C
4) COc1ccc(N2CCN(c3c(C)c(C)c4c(c3C)C(c3cccc(C)c3)C(C)(C)O4)CC2)cc1 (stereo not given) | 159 to 161 °C

[Q] Fill blank: measured melting point of the compound `CC(C)n1c(C=O)c(-c2ccc(F)cc2)c(-c2ccccc2)c1C(N)=O` is ____.
[A] 187 to 188 °C
